Measured values drawn from ChEMBL document CHEMBL1157539 for this set.

- Tested on: HepG2
- EXPERIMENTAL PROTOCOL: GSK_TCMDC: Percent inhibition of human HepG2 cell line. Test compounds present at 10uM.
- Type: functional
Hi, to clarify the labels: T covers Inhibition from 10% upward, F covers anything below 10%.

Solved entries:
| COMPOUND | TARGET DESC | ASSIGNED LABEL |
| --- | --- | --- |
| Cn1c(C2CC3CCC(C2)N3CC2CCC(NC(=O)/C=C/c3ccc(Cl)c(Cl)c3)CC2)nc2ccccc21 (stereo unspecified) | HepG2 | T |
| Br.CC(Cc1ccc(CSC(C)C)cc1)NCC(O)c1cccc(Cl)c1 (stereo unspecified) | HepG2 | T |

Input: Can CC(=O)Nc1ccc(OCCN(CC(C)C)c2ccc(C#N)c(C(F)(F)F)c2)c(Cl)c1 be said to have Inhibition at or above 10%?
Output: T

Input: Hi, just wondering whether CN1CC[C@H](N(Cc2ccccc2F)c2ccc(C#N)c(Cl)c2)C1 shows Inhibition of 10% or higher.
Output: T

Input: Tell me whether Inhibition is at least 10% here: CCOc1ccc(-c2nc3cc(-c4nc5cc(N6CCN(C)CC6)ccc5[nH]4)ccc3[nH]2)cc1.Cl.O
Output: T

Input: Determine whether measured Inhibition meets or exceeds 10% for CN(c1cc(NC(=O)c2ccc(F)cc2)ccn1)C1CCN(Cc2ccc(C#N)cc2)CC1.O=C(O)C(F)(F)F
Output: T

Input: Does Inhibition meet or surpass 10% for O=C(/C=C/c1ccc(Cl)c(Cl)c1)NCC1CCCC(CN2CCC(c3c[nH]c4ccccc34)CC2)C1 (stereo unspecified) ?
Output: T

Input: Item O=c1n[n+](C2CCCCC2)[n-]o1 with Inhibition of 10% or above?
Output: F

Input: Check this compound for Inhibition at or above 10%: O=C(NC1CCC(CN2CCC(c3c[nH]c4ccccc34)CC2)CC1)c1cc2cccc([N+](=O)[O-])c2[nH]1 (stereo unspecified)
Output: T
